Entry source: patent US20230348415A1

Assay: In vivo PK in CD-1 mice (IV and PO)
Design: species or system mouse
Conditions: mouse, whole blood; IV 2 mg/kg, male CD-1 mice
recordedEndpoint: half-life (h)
Reply with just the number (in h).

Prompt line: Specify half-life for Cc1cc(C(=O)O)nc(N2CCC(COc3ccccc3C(F)(F)F)C2)n1 (racemic) [Compound (±)-44] and stop.
Response line: 8.6

---

Test: In vivo PK in CD-1 mice (IV and PO)
Design: species or system mouse
Conditions: mouse, whole blood; PO 5 mg/kg vs IV 2 mg/kg, male CD-1 mice
recordedEndpoint: bioavailability (%)
Reply with just the number (in %).

Prompt line: Specify bioavailability for Cc1cc(C(=O)O)nc(N2CCC(COc3ccccc3C(F)(F)F)C2)n1 (racemic) [Compound (±)-44] and stop.
Response line: 52

---

Assay: In vivo PK in CD-1 mice (IV and PO)
Design: species or system mouse
Details: mouse, whole blood; PO 5 mg/kg, male CD-1 mice
recordedEndpoint: AUC(0-t) (ng·h/mL)
Reply with just the number (in ng·h/mL).

Prompt line: Specify AUC(0-t) for Cc1cc(C(=O)O)nc(N2CCC(COc3ccccc3C(F)(F)F)C2)n1 (racemic) [Compound (±)-44] and stop.
Response line: 50400

---

Target: RBP4 (Homo sapiens (Human), UniProt P02753)
Test: RBP4 SPA binding assay (displacement of 3H-retinol)
recordedEndpoint: IC50 (nM)
Reply with just the number (in nM).

Reference set, count: 4
Cc1cc(C(=O)O)nc(N2CCC(COc3cccnc3C(F)(F)F)C2)n1 (racemic) [Compound (±)-93] = 660
O=C(O)c1ccnc(N2CCC(COc3ccccc3C(F)(F)F)C2)n1 (racemic) [Compound (±)-94] = 1670
Cc1cc(C(=O)O)nc(N2CCC3(CCN(c4ccccc4C(F)(F)F)C3)C2)n1 (racemic) [(±)-67] = 260
Cc1cc(-c2nn[nH]n2)nc(N2CCC(COc3ccccc3C(F)(F)F)C2)n1 (racemic) [(±)-103] = 86

Prompt line: Specify IC50 for O=C(O)c1ccc(F)c(N2CCC(COc3ccccc3C(F)(F)F)C2)c1 (racemic) [(±)-98] and stop.
Response line: 2350

Prompt line: Specify IC50 for Cc1cc(C(=O)O)nc(N2CCC(COc3ccccc3C3CCCCC3)C2)n1 (racemic) [Compound (±)-85] and stop.
Response line: 210

Prompt line: Specify IC50 for Cc1cc(C(=O)O)nc(N2CCCC(COc3ccccc3C(F)(F)F)C2)n1 (racemic) [(±)-62] and stop.
Response line: 480

---

Target: RBP4-TTR interaction (Homo sapiens (Human))
Experiment: HTRF RBP4-TTR interaction assay
Type: biochemical
Entries and their measured IC50 follow.
Reply with just the number (in µM).

Prompt line: Specify IC50 for Cc1cc(-c2nn[nH]n2)nc(N2CCC(COc3ccccc3C(F)(F)F)C2)n1 (racemic) [(±)-103] and stop.
Response line: 1.6

Prompt line: Specify IC50 for Cc1cc(C(=O)O)nc(N2CCCC(COc3ccccc3C(F)(F)F)C2)n1 (racemic) [(±)-62] and stop.
Response line: 15

---

Biological target: RBP4 (Homo sapiens (Human))
Test: RBP4 SPA binding assay (displacement of 3H-retinol)
Conditions: fixed 10 nM 3H-retinol; read-out: RBP4 SPA IC50
recordedEndpoint: log10 IC50 (log10 of the value in nM)
Heads up, the numbers here are log10 of IC50 in nM units.

Reference set, count: 7
CNC(=O)c1cc(C)nc(N2CCC(COc3ccccc3C(F)(F)F)C2)n1 (racemic) [(±)-101] = 1.95
Cc1cc(C(=O)NC2CC2)nc(N2CCC(COc3ccccc3C(F)(F)F)C2)n1 (racemic) [Compound (±)-102] = 1.79
Cc1cc(C(=O)O)nc(N2CCC(COc3cc(F)ccc3C(F)(F)F)C2)n1 (racemic) [Compound (±)-88] = 2.11
Cc1cc(C(=O)O)nc(N2CCC(CNc3ccccc3C(F)(F)F)C2)n1 (racemic) [(±)-76] = 2.95
Cc1cc(C(=O)O)nc(N2CCC(CSc3ccccc3C(F)(F)F)C2)n1 (racemic) [Compound (±)-71] = 2.36
Cc1cc(C(=O)O)nc(N2CCC(COc3ccccc3C(C)(C)C)C2)n1 (racemic) [Compound (±)-83] = 2.11
Cc1cc(C(N)=O)nc(N2CCC(COc3ccccc3C(F)(F)F)C2)n1 (racemic) [Compound (±)-100] = 1.79

Continue with the compound presented below.
Prompt line: Specify log10 IC50 for Cc1cc(C(=O)O)nc(N2CCC(COc3c(F)cccc3C(F)(F)F)C2)n1 (racemic) [Compound (±)-89] and stop.
Response line: 2.48

---

Entries and their measured IC50 follow.
Biological target: RBP4-TTR interaction (Homo sapiens (Human), UniProt P02753)
Assay: HTRF RBP4-TTR interaction assay
Assay type: biochemical
Conditions: 1 μM retinol; read-out: RBP4-TTR HTRF IC50

Cc1cc(C(=O)O)nc(N2CCC(COc3ccc(F)cc3C(F)(F)F)C2)n1 (racemic) [Compound (±)-87] = 0.87 µM
Cc1cc(C(=O)O)nc(N2CCC(Oc3ccccc3C(F)(F)F)CC2)n1 = 18.7 µM
CNC(=O)c1cc(C)nc(N2CCC(COc3ccccc3C(F)(F)F)C2)n1 (racemic) [(±)-101] = > 30 µM

Continue with the molecule presented below.
Prompt line: Please tell me the measured IC50 for Cc1cc(C(=O)O)nc(N2CC(COc3ccccc3C(F)(F)F)C2)n1 ; system: RBP4-TTR interaction (Homo sapiens (Human), UniProt P02753).
Response line: 6.5 µM

---

Target: hERG (Homo sapiens (Human))
Sequence (Q12809 whole entry): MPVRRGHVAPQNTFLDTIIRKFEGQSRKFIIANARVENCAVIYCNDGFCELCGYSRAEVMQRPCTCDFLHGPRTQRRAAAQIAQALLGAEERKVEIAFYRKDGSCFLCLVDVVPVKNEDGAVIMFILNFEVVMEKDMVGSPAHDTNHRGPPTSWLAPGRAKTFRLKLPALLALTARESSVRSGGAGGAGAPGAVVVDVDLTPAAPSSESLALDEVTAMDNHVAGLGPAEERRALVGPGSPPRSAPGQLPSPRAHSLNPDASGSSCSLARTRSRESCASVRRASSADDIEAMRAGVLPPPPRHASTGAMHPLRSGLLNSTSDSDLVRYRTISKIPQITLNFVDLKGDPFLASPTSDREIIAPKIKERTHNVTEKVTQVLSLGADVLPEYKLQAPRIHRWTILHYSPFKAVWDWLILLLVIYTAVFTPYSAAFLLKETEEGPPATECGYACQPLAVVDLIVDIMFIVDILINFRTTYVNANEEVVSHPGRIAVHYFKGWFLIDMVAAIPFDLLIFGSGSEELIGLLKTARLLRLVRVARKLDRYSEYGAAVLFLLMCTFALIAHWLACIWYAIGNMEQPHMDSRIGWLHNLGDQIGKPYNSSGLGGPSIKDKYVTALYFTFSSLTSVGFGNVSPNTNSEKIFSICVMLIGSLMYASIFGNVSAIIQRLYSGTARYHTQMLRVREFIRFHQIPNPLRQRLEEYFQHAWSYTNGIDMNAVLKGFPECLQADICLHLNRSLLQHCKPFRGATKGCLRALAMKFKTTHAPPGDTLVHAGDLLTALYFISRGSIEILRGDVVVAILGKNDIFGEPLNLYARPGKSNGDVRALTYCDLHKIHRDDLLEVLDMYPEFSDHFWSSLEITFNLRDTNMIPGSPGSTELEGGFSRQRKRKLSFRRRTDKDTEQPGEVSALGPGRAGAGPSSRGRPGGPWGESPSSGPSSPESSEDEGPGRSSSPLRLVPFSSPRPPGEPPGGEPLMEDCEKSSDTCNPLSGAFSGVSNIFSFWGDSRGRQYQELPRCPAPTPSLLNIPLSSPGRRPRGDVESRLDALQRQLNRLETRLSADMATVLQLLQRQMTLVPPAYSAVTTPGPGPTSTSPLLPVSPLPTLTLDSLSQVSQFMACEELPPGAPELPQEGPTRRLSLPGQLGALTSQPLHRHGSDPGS
Test: CiPA hERG QPatch Assay
Details: five-point concentration-response, n = 2
recordedEndpoint: IC50

Prompt line: Specify IC50 for Cc1cc(C(=O)O)nc(N2CCC(COc3ccccc3C(F)(F)F)C2)n1 (racemic) [Compound (±)-44] and stop.
Response line: > 30 µM

---

Target: RBP4-TTR interaction (Homo sapiens (Human))
Assay: HTRF RBP4-TTR interaction assay
Type: biochemical
Details: 1 μM retinol; read-out: RBP4-TTR HTRF IC50
recordedEndpoint: IC50

Cc1cc(C(=O)O)nc(N2CCC(CSc3ccccc3C(F)(F)F)C2)n1 (racemic) [Compound (±)-71] = 1300 nM

Prompt line: Specify IC50 for O=C(O)c1cccnc1N1CCC(COc2ccccc2C(F)(F)F)C1 (racemic) [Compound (±)-97] and stop.
Response line: 1300 nM

Prompt line: Specify IC50 for Cc1cc(C(=O)O)nc(N2CC[C@@H](COc3ccccc3C(F)(F)F)C2)n1 [Compound (R)-50] and stop.
Response line: 240 nM

Prompt line: Specify IC50 for Cc1cc(C(N)=O)nc(N2CCC(COc3ccccc3C(F)(F)F)C2)n1 (racemic) [Compound (±)-100] and stop.
Response line: 2300 nM

Prompt line: Specify IC50 for Cc1cc(C(=O)O)nc(N2CCC(CNc3ccccc3C(F)(F)F)C2)n1 (racemic) [(±)-76] and stop.
Response line: 7500 nM

Prompt line: Specify IC50 for Cc1cc(C(=O)O)nc(N2CCC(COc3c(F)cccc3C(F)(F)F)C2)n1 (racemic) [Compound (±)-89] and stop.
Response line: 1000 nM

Prompt line: Specify IC50 for Cc1cc(C(=O)O)nc(N2CCC(COc3ccccc3C(F)(F)F)C2)c1 (racemic) [(±)-95] and stop.
Response line: 540 nM

Prompt line: Specify IC50 for Cc1cc(C(=O)NS(C)(=O)=O)nc(N2CCC(COc3ccccc3C(F)(F)F)C2)n1 (racemic) [(±)-99] and stop.
Response line: 700 nM

Prompt line: Specify IC50 for Cc1cc(C(=O)O)nc(N2CCC(COc3cnccc3C(F)(F)F)C2)n1 (racemic) [Compound (±)-92] and stop.
Response line: 3700 nM

Prompt line: Specify IC50 for Cc1cc(C(=O)O)nc(N2CCC(COc3ccccc3C3CCCC3)C2)n1 (racemic) [Compound (±)-84] and stop.
Response line: 540 nM

Prompt line: Specify IC50 for Cc1cc(C(=O)O)nc(N2CCC(COc3cc(F)ccc3C(F)(F)F)C2)n1 (racemic) [Compound (±)-88] and stop.
Response line: 300 nM

Prompt line: Specify IC50 for Cc1cc(C(=O)NC2CC2)nc(N2CCC(COc3ccccc3C(F)(F)F)C2)n1 (racemic) [Compound (±)-102] and stop.
Response line: 19000 nM

Prompt line: Specify IC50 for Cc1cc(C(=O)O)nc(N2CCC(COc3ccccc3C(C)(C)C)C2)n1 (racemic) [Compound (±)-83] and stop.
Response line: 450 nM

Prompt line: Specify IC50 for Cc1cc(C(=O)O)nc(N2CC[C@H](COc3ccccc3C(F)(F)F)C2)n1 [Compound (S)-56] and stop.
Response line: 750 nM

Prompt line: Specify IC50 for Cc1cc(C(=O)O)nc(N2CCC(COc3ccccc3C(F)(F)F)C2)n1 (racemic) [Compound (±)-44] and stop.
Response line: 250 nM
